assay: Clearance in cynomolgus monkey at 1 mg/kg, iv; type: ADME, organism-based, Macaca fascicularis; set-up: dose 1 mg/kg, route intravenous; settings: in vivo
READOUT LABEL: clearance (mL/min/kg)

[[record]]
molecule = "COC(=O)N[C@H](C(=O)N1CCC[C@H]1c1ncc(-c2ccc(C34CCC(c5cnc([C@@H]6CCCN6C(=O)[C@@H](NC(=O)OC)C(C)C)[nH]5)(CC3)CC4)cc2)[nH]1)C(C)C"
val = 6.5


---

experiment: Volume of distribution at steady state in Sprague-Dawley rat at 2 mg/kg, iv; format: ADME, organism-based; set-up: dose 2 mg/kg, route intravenous; details: in vivo, read-out: Vdss
READOUT LABEL: Vd (L/kg)

[[record]]
molecule = "COC(=O)N[C@@H](C(=O)N1CCC[C@H]1c1ncc(-c2ccc(N3CCC(c4cnc([C@@H]5CCCN5C(=O)[C@H](NC(=O)OC)c5ccccc5)[nH]4)CC3)c(F)c2)[nH]1)c1ccccc1"
unit_descriptor = "L/kg"
val = 1.39


---

assay: Clearance in Sprague-Dawley rat at 2 mg/kg, iv; format: ADME, organism-based; parameters: dose 2 mg/kg, route intravenous; details: in vivo
READOUT LABEL: clearance

[[record]]
molecule = "COC(=O)N[C@@H](C(=O)N1CCC[C@H]1c1ncc(-c2ccc(N3CCC(c4cnc([C@@H]5CCCN5C(=O)[C@H](NC(=O)OC)c5ccccc5)[nH]4)CC3)c(F)c2)[nH]1)c1ccccc1"
readout_label = "clearance"
val = "17.7 mL/min/kg"


---

assay: Tmax in cynomolgus monkey at 5 mg/kg, po; assay type: ADME, organism-based, Macaca fascicularis; parameters: dose 5 mg/kg, route oral; details: in vivo
READOUT LABEL: Tmax (h)

[[record]]
molecule = "COC(=O)N[C@H](C(=O)N1CCC[C@H]1c1ncc(-c2ccc(C34CCC(c5cnc([C@@H]6CCCN6C(=O)[C@@H](NC(=O)OC)C(C)C)[nH]5)(CC3)CC4)cc2)[nH]1)C(C)C"
readout_label = "Tmax"
unit_descriptor = "h"
val = 4


---

This listing pairs compounds with measured concentration at 4 h.
assay: Plasma concentration in Sprague-Dawley rat […] at 5 mg/kg, po after 4 hrs; type: ADME, organism-based; design: dose 5 mg/kg, route oral
READOUT LABEL: concentration at 4 h (ng/mL)

[[record]]
molecule = "COC(=O)N[C@H](C(=O)N1CCC[C@H]1c1ncc(-c2ccc([C@H]3CC[C@H](c4cnc([C@@H]5CCCN5C(=O)[C@@H](NC(=O)OC)C(C)C)[nH]4)CC3)cc2)[nH]1)C(C)C"
readout_label = "concentration at 4 h"
val = 108

[[record]]
molecule = "COC(=O)N[C@H](C(=O)N1CCC[C@H]1c1ncc(-c2ccc(C34CCC(c5cnc([C@@H]6CCCN6C(=O)[C@@H](NC(=O)OC)C(C)C)[nH]5)(CC3)CC4)cc2)[nH]1)C(C)C"
readout_label = "concentration at 4 h"
val = 653


---

assay: Cmax in cynomolgus monkey at 5 mg/kg, po; assay type: ADME, organism-based, Macaca fascicularis; set-up: dose 5 mg/kg, route oral; conditions: in vivo
READOUT LABEL: Cmax (ng/mL)

[[record]]
molecule = "COC(=O)N[C@H](C(=O)N1CCC[C@H]1c1ncc(-c2ccc(C34CCC(c5cnc([C@@H]6CCCN6C(=O)[C@@H](NC(=O)OC)C(C)C)[nH]5)(CC3)CC4)cc2)[nH]1)C(C)C"
val = 1400

